Experiment: TFE titrations monitored by CD (helical population)
Format: physicochemical
Conditions: CD at 222 nm, 5 °C, 50 mM phosphate pH 6.8, peptide 40 μM; two-state fit, ± fitting error
Experimental: Unlike the above programs, which make assumptions about how the ellipticity signal relates to secondary structure content, a TFE titration allows the determination of helical content derived from the free-energy change for the equilibrium between folded (in TFE) and unfolded peptide, without any such assumptions. For the TFE titrations, a peptide concentration of 40 μM was used. The samples were prepared the day before and left overnight at 5 °C to reach equilibrium. […]
PROPERTY LABEL: [TFE]1/2 (midpoint of TFE titration)

Problem: Which [TFE]1/2 (midpoint of TFE titration) value belongs to CC(=O)N[C@@H](CCC(=O)O)C(=O)N[C@@H](CC(=O)O)C(=O)N[C@@H](Cc1ccccc1)C(=O)N[C@@H](CCC(=O)O)C(=O)N[C@@H](CC(=O)O)C(=O)N[C@@H](CC(C)C)C(=O)N[C@@H](Cc1c[nH]c2ccccc12)C(=O)N[C@@H](CCCCN)C(=O)N[C@@H](CC(C)C)C(=O)N[C@@H](CC(C)C)C(=O)N1CCC[C@H]1C(=O)N[C@@H](CCC(=O)O)C(=O)N[C@@H](CC(N)=O)C(N)=O ?
Result: 33 ± 5 % (vol:vol)

FYI, the data here is from paper PMC6345774.
